SUBJECT_OF_TEST: Carbonic anhydrase 9 (Homo sapiens)
Criterion: Ki strictly under 20 nM. Met: true. Not met: false.

Below are worked cases with known answers.
>>> label_value("COc1ccc(-c2nn(-c3ccc(S(N)(=O)=O)cc3)cc2/C=N\\Nc2nc(-c3cc4ccccc4oc3=O)cs2)cc1")
"false"
>>> label_value("C/C(=N\\Nc1ccc(S(N)(=O)=O)cc1)c1cc2cc(Cl)ccc2oc1=O")
"true"
>>> label_value("NS(=O)(=O)c1ccc(Nc2nc(-c3cc4cc(Br)ccc4oc3=O)cs2)cc1")
"false"
>>> label_value("NS(=O)(=O)c1ccc(Nc2nc(-c3cc4cc(Cl)ccc4oc3=O)cs2)cc1")
"false"
>>> label_value("NS(=O)(=O)c1ccc2c(c1)sc1nc(-c3cc4cc(Cl)ccc4oc3=O)cn12")
"true"
>>> label_value("NS(=O)(=O)c1ccc(-n2cc(/C=N\\Nc3nc(-c4cc5cc(Br)ccc5oc4=O)cs3)c(-c3ccccc3)n2)cc1")
"false"

Read the next record carefully.
Q. Identify whether the molecule "NS(=O)(=O)c1ccc2c(c1)sc1nc(-c3cc4ccccc4oc3=O)cn12" records Ki below 20 nM.
A. false
